Cited source: ChEMBL document CHEMBL4610127

biological target: Cytochrome P450 2C19 (Homo sapiens, UniProt P33261)
Sequence (P33261 whole entry): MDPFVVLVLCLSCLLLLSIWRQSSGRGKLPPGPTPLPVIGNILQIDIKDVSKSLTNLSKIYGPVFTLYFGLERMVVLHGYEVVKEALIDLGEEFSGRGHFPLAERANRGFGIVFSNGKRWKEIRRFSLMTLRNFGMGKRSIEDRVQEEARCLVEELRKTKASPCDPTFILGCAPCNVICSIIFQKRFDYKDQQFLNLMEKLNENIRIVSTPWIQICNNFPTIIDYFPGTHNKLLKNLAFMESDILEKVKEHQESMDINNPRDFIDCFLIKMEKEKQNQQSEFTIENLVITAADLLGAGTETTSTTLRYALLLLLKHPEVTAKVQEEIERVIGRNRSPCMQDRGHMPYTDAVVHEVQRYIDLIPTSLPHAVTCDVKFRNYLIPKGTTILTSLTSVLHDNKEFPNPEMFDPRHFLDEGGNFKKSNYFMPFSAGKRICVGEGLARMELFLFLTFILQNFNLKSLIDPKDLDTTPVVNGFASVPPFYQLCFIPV

| Molecule Smiles | IC50 |
| --- | --- |
| CC(C)[C@@H](NC(=O)c1cc(C(F)(F)F)ccc1F)C(=O)N1CCC2(CC1)C(=O)N(C)C(=O)N2c1ccc2[nH]ncc2c1 | 46 µM |

---

test: AUClast in rat at 5 mg/kg, po; format: ADME, organism-based; design: dose 5 mg/kg, route oral, time 0 - last; details: in vivo

| Molecule Smiles | AUC(0-t), ng·h/mL |
| --- | --- |
| CC(C)[C@@H](NC(=O)c1cc(C(F)(F)F)ccc1F)C(=O)N1CCC2(CC1)C(=O)N(C)C(=O)N2c1ccc2[nH]ncc2c1 | 518 |

---

experiment: Thermodynamic solubility in pH 7.4 buffer; assay type: physicochemical; settings: read-out: Therm_solubility

| Molecule Smiles | solubility thermodynamic, µM |
| --- | --- |
| CC(C)[C@@H](NC(=O)c1cc(C(F)(F)F)ccc1F)C(=O)N1CCC2(CC1)C(=O)N(C)C(=O)N2c1ccc2[nH]ncc2c1 | 452 |

---

assay: Half life in dog at 1 mg/kg, iv; assay type: ADME, organism-based, Canis lupus familiaris; details: in vivo

| Molecule Smiles | Quantity Unit | half-life |
| --- | --- | --- |
| CC(C)[C@@H](NC(=O)c1cc(C(F)(F)F)ccc1F)C(=O)N1CCC2(CC1)C(=O)N(C)C(=O)N2c1ccc2[nH]ncc2c1 | h | 4.1 |

---

molecular target: Autotaxin (Homo sapiens, UniProt Q13822); test: Inhibition of autotaxin in human plasma assessed as reduction in LPA (18:2) production incubated for 2 hrs LC-MS-/MS analysis; type: cell-free
Endpoint Label: IC50 (nM)

| Molecule Smiles | Measurement |
| --- | --- |
| CC(C)[C@@H](NC(=O)c1cc(C(F)(F)F)ccc1F)C(=O)N1CCC2(CC1)C(=O)N(C)C(=O)N2c1ccc2[nH]ncc2c1 | 14 |

---

molecular target: Autotaxin (Homo sapiens, UniProt Q13822); assay: Inhibition of C-terminal FLAG-tagged human autotaxin expressed in Freestyle 293 cells assessed as reduction in choline release from LPC 16:0 pre-incubated for 10 mins before LPC addition and measured after 1 hr by choline oxidase/HRP coupled assay; format: cell-based
pIC50: −log10 of the molar value.
Endpoint Label: pIC50

| Molecule Smiles | Measurement |
| --- | --- |
| CC(C)[C@@H](NC(=O)c1cc(C(F)(F)F)ccc1F)C(=O)N1CCC2(CC1)C(=O)N(C)C(=O)N2c1ccccc1 | 7.00 |
| CC(C)[C@@H](NC(=O)c1cc(C(F)(F)F)ccc1F)C(=O)N1CCC2(CC1)C(=O)N(C)CN2c1ccc2[nH]ncc2c1 | 7.87 |
| CN1C(=O)N(c2ccc3[nH]ncc3c2)C2(CCN(C(=O)CNC(=O)c3cc(C(F)(F)F)ccc3F)CC2)C1=O | 5.00 |
| Cc1cccc(C(=O)N[C@@H](C(=O)N2CCC3(CC2)C(=O)N(C)CN3c2ccccc2)C2CCCCC2)c1F | 7.25 |
| CC(C)[C@@H](NC(=O)c1cc(C(F)(F)F)ccc1F)C(=O)N1CCC2(CC1)C(=O)N(C)C(=O)N2c1ccc(C(=O)O)cc1 | 7.51 |

---

assay: AUClast in mouse at 10 mg/kg, po; format: ADME, organism-based; set-up: dose 10 mg/kg, time 0 - last, route oral; conditions: in vivo
Endpoint Label: AUC(0-t)

| Molecule Smiles | Endpoint Label | Measurement |
| --- | --- | --- |
| CC(C)[C@@H](NC(=O)c1cc(C(F)(F)F)ccc1F)C(=O)N1CCC2(CC1)C(=O)N(C)C(=O)N2c1ccc2[nH]ncc2c1 | AUC(0-t) | 2590 ng·h/mL |
